Data origin, for the record: patent US20200055939A1

Biological target: T1, MICB*005 on HCC1534 cells (human, UniProt Q29980 23-383)
T1 sequence (looked up): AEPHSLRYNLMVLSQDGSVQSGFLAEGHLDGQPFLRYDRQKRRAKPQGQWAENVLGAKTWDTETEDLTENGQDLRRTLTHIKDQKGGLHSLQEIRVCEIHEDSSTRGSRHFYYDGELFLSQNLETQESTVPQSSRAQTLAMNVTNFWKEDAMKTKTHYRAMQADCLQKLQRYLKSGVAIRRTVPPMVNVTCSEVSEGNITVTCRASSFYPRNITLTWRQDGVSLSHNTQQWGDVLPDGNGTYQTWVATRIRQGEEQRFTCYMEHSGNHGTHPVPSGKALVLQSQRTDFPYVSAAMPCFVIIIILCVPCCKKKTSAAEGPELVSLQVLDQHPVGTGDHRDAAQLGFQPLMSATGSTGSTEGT
Assay: cell-based or functional assay
Consider the following binders; for each one, report its EC50 of shedding inhibition.
One number for each entry, in µg/mL.

Past entries and their recorded results:
1D5 (antibody, V domains shown, Mouse variable domains; constant regions differ by assay (human IgG1 or mouse IgG2a); also called anti-MIC 1D5) VH: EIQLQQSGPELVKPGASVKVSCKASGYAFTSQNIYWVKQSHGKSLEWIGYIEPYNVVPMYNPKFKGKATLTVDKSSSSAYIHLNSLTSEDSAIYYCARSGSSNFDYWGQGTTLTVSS VL: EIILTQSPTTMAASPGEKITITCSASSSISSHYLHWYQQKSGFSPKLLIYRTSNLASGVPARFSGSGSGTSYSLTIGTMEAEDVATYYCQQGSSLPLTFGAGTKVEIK
0.0386
15F11 (antibody, V domains shown, Mouse variable domains; constant regions differ by assay) VH: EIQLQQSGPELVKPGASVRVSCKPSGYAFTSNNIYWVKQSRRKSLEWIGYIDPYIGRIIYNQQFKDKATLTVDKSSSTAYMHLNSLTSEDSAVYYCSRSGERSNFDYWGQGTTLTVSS VL: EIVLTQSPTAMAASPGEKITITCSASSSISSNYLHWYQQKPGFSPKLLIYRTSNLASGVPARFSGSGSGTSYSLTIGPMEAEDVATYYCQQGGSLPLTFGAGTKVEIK
0.102
13A9 (antibody, V domains shown, Mouse variable domains; constant regions differ by assay) VH: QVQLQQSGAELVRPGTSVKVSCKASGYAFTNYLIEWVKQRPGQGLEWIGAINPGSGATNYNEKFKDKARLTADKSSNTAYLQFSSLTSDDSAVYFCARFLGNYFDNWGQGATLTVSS VL: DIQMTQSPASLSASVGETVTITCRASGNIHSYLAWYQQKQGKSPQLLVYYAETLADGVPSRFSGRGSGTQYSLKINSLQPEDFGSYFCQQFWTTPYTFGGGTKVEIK
0.0349

// below: EC50 of shedding inhibition requested for another binder
Form field: reported EC50 of shedding inhibition of 6E1.1.12 (antibody, V domains shown, Mouse hybridoma antibody; constant regions differ by assay) VH: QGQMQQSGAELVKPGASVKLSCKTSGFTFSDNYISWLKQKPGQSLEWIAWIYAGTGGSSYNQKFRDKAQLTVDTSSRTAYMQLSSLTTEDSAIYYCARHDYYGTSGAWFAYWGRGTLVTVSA VL: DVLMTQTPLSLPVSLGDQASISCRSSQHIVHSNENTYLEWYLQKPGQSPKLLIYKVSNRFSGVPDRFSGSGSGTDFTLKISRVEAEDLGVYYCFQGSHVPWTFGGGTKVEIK
0.0724
